Entries and their EC50 (nM), cleavage of purified hC3 in vitro
- system_name: human complement protein C3 (human) (UniProt P01024)
- Sequence (P01024 23-667, chain 1 of 2): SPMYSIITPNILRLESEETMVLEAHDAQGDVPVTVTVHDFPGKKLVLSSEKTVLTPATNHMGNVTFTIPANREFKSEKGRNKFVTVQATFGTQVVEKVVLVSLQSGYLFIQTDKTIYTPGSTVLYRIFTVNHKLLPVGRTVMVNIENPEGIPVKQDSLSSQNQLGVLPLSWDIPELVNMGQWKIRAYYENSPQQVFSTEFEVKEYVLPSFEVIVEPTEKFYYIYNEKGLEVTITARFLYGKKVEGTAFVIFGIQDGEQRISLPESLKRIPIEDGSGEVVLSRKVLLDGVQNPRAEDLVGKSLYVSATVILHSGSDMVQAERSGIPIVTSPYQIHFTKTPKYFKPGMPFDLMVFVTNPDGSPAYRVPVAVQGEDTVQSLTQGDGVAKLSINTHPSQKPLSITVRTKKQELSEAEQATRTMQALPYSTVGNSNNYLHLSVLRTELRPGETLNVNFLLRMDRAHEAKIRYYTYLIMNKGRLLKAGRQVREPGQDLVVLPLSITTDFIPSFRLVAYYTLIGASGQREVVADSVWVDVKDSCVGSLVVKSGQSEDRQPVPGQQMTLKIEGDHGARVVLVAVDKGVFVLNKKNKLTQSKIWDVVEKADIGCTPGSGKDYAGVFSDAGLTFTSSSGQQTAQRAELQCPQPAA
- Sequence (P01024 672-1663, chain 2 of 2): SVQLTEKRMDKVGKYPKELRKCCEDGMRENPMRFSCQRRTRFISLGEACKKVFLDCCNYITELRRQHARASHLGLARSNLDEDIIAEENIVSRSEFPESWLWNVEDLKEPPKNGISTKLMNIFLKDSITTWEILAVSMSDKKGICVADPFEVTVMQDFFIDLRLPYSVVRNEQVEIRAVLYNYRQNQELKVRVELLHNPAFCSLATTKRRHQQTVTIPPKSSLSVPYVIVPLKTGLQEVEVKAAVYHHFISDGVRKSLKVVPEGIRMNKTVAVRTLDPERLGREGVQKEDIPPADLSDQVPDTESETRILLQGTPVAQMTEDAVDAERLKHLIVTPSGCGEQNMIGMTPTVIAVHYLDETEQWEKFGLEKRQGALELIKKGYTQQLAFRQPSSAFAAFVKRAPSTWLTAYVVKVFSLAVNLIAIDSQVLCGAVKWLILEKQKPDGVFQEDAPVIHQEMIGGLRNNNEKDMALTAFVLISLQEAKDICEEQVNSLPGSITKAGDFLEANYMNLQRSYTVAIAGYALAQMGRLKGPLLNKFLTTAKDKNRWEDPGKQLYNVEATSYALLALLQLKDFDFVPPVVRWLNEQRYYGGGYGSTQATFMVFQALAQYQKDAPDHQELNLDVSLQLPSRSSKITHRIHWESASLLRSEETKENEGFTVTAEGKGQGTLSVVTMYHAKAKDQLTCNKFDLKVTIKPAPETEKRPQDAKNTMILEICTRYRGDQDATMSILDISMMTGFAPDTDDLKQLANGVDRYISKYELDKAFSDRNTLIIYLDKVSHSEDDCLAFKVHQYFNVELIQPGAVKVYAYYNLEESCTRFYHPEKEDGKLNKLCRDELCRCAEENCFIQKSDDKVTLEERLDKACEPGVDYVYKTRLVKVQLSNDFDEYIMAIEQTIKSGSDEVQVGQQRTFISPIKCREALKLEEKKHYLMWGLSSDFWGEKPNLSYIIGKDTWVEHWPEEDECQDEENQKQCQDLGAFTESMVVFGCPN
- method: cell-based or functional assay

Consider the worked cases shown below.
| binder | reported_result |
| --- | --- |
| Q38H/I41A/D60bV/F60eR/Y60gW/D96P/ins97aN/F97W/T98G/F99L/C122S/G151N/Q175L/Q192E (enzyme) VVGGTDADEGEWPWQVSLHALGHGHACGASLISPNWLVSAAHCYIDVRGRRWSDPTQWTAFLGLHDQSQRSAPGVQERRLKRIISHPFFNPWNGLDYDIALLELEKPAEYSSMVRPISLPDASHVFPAGKAIWVTGWGHTQYGGTNALILQKGEIRVINQTTCENLLPQLITPRMMCVGFLSGGVDSCEGDSGGPLSSVEADGRIFQAGVVSWGDGCAQRNKPGVYTRLPLFRDWIKENTGV | 1.51 nM |
| Q38H/I41A/D60bV/F60eT/Y60gW/ins97aE/F97T/T98G/F99L/C122S/Q175L/Q192E (enzyme) VVGGTDADEGEWPWQVSLHALGHGHACGASLISPNWLVSAAHCYIDVRGTRWSDPTQWTAFLGLHDQSQRSAPGVQERRLKRIISHPFFNDTEGLDYDIALLELEKPAEYSSMVRPISLPDASHVFPAGKAIWVTGWGHTQYGGTGALILQKGEIRVINQTTCENLLPQLITPRMMCVGFLSGGVDSCEGDSGGPLSSVEADGRIFQAGVVSWGDGCAQRNKPGVYTRLPLFRDWIKENTGV | 1.39 nM |

Data request, read-out EC50 (nM), cleavage of purified hC3 in vitro, for Q38H/I41A/D60bV/F60eR/Y60gW/D96P/ins97aN/F97W/T98G/F99L/C122S/G151H/Q175L/Q192E (enzyme) VVGGTDADEGEWPWQVSLHALGHGHACGASLISPNWLVSAAHCYIDVRGRRWSDPTQWTAFLGLHDQSQRSAPGVQERRLKRIISHPFFNPWNGLDYDIALLELEKPAEYSSMVRPISLPDASHVFPAGKAIWVTGWGHTQYGGTHALILQKGEIRVINQTTCENLLPQLITPRMMCVGFLSGGVDSCEGDSGGPLSSVEADGRIFQAGVVSWGDGCAQRNKPGVYTRLPLFRDWIKENTGV
1.11 nM
